# study-target: T1, human TREM2 Fc fusion (entire TREM2 ECD; only one Fc arm fused to TREM2) (human, UniProt Q9NZC2 19-174)
# T1 construct: also called huTREM2-Fc; recombinant hTREM2
# T1 sequence: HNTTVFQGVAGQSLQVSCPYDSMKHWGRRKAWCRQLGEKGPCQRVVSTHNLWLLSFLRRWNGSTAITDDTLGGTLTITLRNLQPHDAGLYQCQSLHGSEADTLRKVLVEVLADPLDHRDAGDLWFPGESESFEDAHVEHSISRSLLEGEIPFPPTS
# protocol-notes: BLI, Fab, monovalent
Measured pKd by item
FYI, pKd means -log10 of a concentration in mol per litre.

Below, 3 binders whose answers are already recorded.
AL2p-h23 (antibody, human IgG1, V domains shown, humanized, human IgG1; Fab and IgG formats under one id) VH: QVQLVQSGAEVKKPGASLKISCKASGYAFSSSWMNWVRQAPGQGLEWIGRIYPGDGDTNYAQKFQGRATLTADTSTSTAYMELSSLRSEDTAVYYCARLLRNQPGESYAMDYWGQGALVTVSS VL: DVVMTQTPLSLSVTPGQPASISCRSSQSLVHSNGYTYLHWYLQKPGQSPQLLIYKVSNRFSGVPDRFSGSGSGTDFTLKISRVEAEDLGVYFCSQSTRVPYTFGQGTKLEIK : 6.48
AL2p-h19 (antibody, human IgG1, V domains shown, humanized, human IgG1; Fab and IgG formats under one id) VH: QVQLVQSGAEVKKPGSSVKVSCKASGYAFSSSWMNWVRQAPGQGLEWMGRIYPGDGDTNYAQKFQGRATITADTSTSTAYMELSSLRSEDTAVYYCARLLRNQPGESYAMDYWGQGTLVTVSS VL: DIVMTQTPLSLSVTPGQPASISCRSSQSLVHSNGYTYLHWYLQKPGQSPQLLIYKVSNRFSGVPDRFSGSGSGTDFTLKISRVEAEDVGVYYCSQSTRVPYTFGQGTKLEIK : 6.71
AL2p-h32 (antibody, human IgG1, V domains shown, humanized, human IgG1; Fab and IgG formats under one id) VH: QVQLVQSGAEVKKPGSSVKVSCKASGYAFSSSWMNWVRQAPGQGLEWIGRIYPGDGDTNYNGEFRVRATLTADTSTTTAYMELSSLRSEDTAVYFCARLLRNQPGESYAMDYWGQGTLVTVSS VL: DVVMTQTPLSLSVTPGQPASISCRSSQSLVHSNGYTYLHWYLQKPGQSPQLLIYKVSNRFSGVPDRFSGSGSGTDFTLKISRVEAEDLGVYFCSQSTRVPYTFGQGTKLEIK : 6.84

# query: pKd of entry AL2p-h44 (antibody, human IgG1, V domains shown, humanized, human IgG1; Fab and IgG formats under one id) VH: QVQLVQSGAEVKKPGASLKVSCKASGYAFSSSWMNWVRQAPGQRLEWIGRIYPGDGDTNYAQKFQGRATLTADTSASTAYMELSSLRSEDTAVYFCARLLRNQPGESYAMDYWGQGTLVTVSS VL: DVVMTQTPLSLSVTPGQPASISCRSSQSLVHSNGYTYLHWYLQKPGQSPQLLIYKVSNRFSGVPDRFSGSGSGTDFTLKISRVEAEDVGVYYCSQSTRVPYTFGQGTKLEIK
6.74
